- tgt: human Protein Tyrosine Phosphatase Receptor Type C (PTPRC), PTPRC (gene 5788)
- protocol: NVS_ENZ_hPTPRC: NovaScreen (NVS) Enzymatic Assay for human Protein Tyrosine Phosphatase Receptor Type C (PTPRC) (AID 2283212)
Inconclusive results are not listed. The source made the active and inactive calls. The calls were made as follows: active = hit-call score of the fitted dose curve at least 0.9, where 1 is the maximum; inconclusive = response in the unintended direction; inactive = score below 0.9.
Entry note: the call must match one of TRUE (active), FALSE (inactive)

Req: Name the outcome recorded for O=C(NO)C1(NS(=O)(=O)c2ccc(Oc3ccc(F)cc3)cc2)CCOCC1 in the assay.
Resp: FALSE

Req: Which outcome was assigned to NC(=O)N1C(=O)C(C(=O)c2cc(Cl)cs2)c2cc(F)c(Cl)cc21 (configuration not stated) in this test?
Resp: FALSE

Req: Look up the recorded call for ClC1=C(Cl)C(Cl)(Cl)C(Cl)=C1Cl in this test.
Resp: TRUE

Req: I would be grateful if you could indicate the recorded call for Nc1ccc(Nc2ccccc2)cc1 .
Resp: TRUE

Req: Outcome? CC(C)CCO
Resp: FALSE

Req: Hey, what did the test say about O=Cc1ccccc1C=O ?
Resp: TRUE

Req: Call for entry CCCCc1nc2cccnc2n1Cc1ccc(-c2ccccc2-c2nnn[nH]2)cc1 :
Resp: FALSE

----------
- Read-out: Urokinase-type plasminogen activator receptor (uPAR), PLAUR (gene 5329)
- protocol: BSK_4H_uPAR: BioMAP Diversity Plus: 4H Assay for Urokinase-type plasminogen activator receptor (uPAR) Biomarker Activity (AID 2283030)
- condition notes: primary human endothelial cells (HUVEC); actives raise or lower the signal
Activity calls are given as the source filed them. Rule for the calls: active = hit-call score of the fitted dose curve at least 0.9, where 1 is the maximum; inactive = score below 0.9.
Tick one outcome: True = active, False = inactive

Req: So what was the verdict on Oc1cc(Cl)ccc1Cl in this test?
Resp: False

Req: Dear colleague, could you share the recorded outcome for CCCCCCCCCCCC#N when you have a moment?
Resp: True

Req: Can you look up the reported call for CCc1cc(C)cc(CC)c1-c1c(OC(=O)C(C)(C)C)n2n(c1=O)CCOCC2 for me?
Resp: False

Req: Field: outcome | Entry: Clc1ccc(-c2ccccc2)cc1
Resp: False

Req: Hi team, can someone confirm the assay call for O=[N+]([O-])O ?
Resp: False

Req: Outcome? CNC(=O)Oc1cc(C)c(SC)c(C)c1
Resp: False

Req: Hi, do you know how O=c1c2ccccc2c(=O)c2c1cc(Cl)c1[nH]c3c([nH]c12)c(Cl)cc1c(=O)c2ccccc2c(=O)c13 came out in this test?
Resp: False

Req: Test call, this compound: O=C1C(Cl)=C(Cl)C(=O)C(Cl)=C1Cl
Resp: True

Req: Please share the test call associated with Cc1ccc(OP(=O)(Oc2ccc(C)cc2)Oc2ccc(C)cc2)cc1 (tested in a mixture with another compound) .
Resp: False

Req: Record lookup: outcome of this test for CCCC[N+](CCCC)(CCCC)CCCC ?
Resp: False

Req: Recorded test outcome, item CC(C)COP(=O)(OCC(C)C)OCC(C)C
Resp: False

Req: What is the recorded call for this compound in the test? CC(C)(c1cc(Cl)c(O)c(Cl)c1)c1cc(Cl)c(O)c(Cl)c1
Resp: True

Req: Recorded test outcome, item [Cd+2].[Cl-].[Cl-]
Resp: False

Req: Name the outcome recorded for O=[N+]([O-])c1ccc(Cl)cc1 in the assay.
Resp: False

Req: Test call for this compound, please: CCCOC(=O)c1ccccc1C(=O)OCCC
Resp: False

Req: Which outcome was entered for the compound O=C(CCl)c1ccccc1 in this test?
Resp: True

Req: Short answer needed: outcome of this test for CC(C)CCCCCCCOC(=O)c1ccccc1C(=O)OCCCCCCCC(C)C ?
Resp: False

Req: Recorded call for CC(=O)/C=C/c1ccccc1 ?
Resp: False

Req: Query: recorded result category for O=C1C=CC(=O)C=C1 in this test
Resp: False

Req: Test call, this compound: O=[N+]([O-])C=Cc1ccccc1
Resp: True

Req: Would you mind telling me which call this test gave COC(C)(C)CCC[C@H](C)C/C=C/C(C)=C/C(=O)OC(C)C ?
Resp: True

----------
- protocol: BSK_SAg_Proliferation: Cell Proliferation Assessment in the BioMAP Diversity Plus: SAg Assay (AID 2283095);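 also: relative cell number as total protein by SRB absorbance in sub-confluent culture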
- condition notes: primary human HUVEC with PBMC
Activity calls are given as the source filed them. Rule for the calls: active = hit-call score of the fitted dose curve at least 0.9, where 1 is the maximum; inactive = score below 0.9.
readout: AC50

# example entries with known answers
The recorded AC50 for Clc1ccc(-c2ccccc2)cc1 is inactive

Item: CC(C)COP(=O)(OCC(C)C)OCC(C)C | AC50: inactive

Documented AC50 of O=C1C(Cl)=C(Cl)C(=O)C(Cl)=C1Cl : 7.77 µM (active)

Reported AC50 ( O=C(CCl)c1ccccc1 ) = 1.06 µM (active)

// AC50 value for CC(C)(c1cc(Cl)c(O)c(Cl)c1)c1cc(Cl)c(O)c(Cl)c1 : 25.9 µM (active)

Would you kindly look at the next entry?
So for CCCC[N+](CCCC)(CCCC)CCCC , the logged AC50 turned out to be inactive

----------
- protocol: CCTE_Shafer_MEA_dev_network_spike_number: CCTE's Neural Network Formation Assay for Number of Network Spikes, Shafer Lab (AID 2284048);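 also: synchronized bursts across electrodes counted on days 5 7 9 12 and integrated as AUC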
Calls of active or inactive are those of the source. Rule for the calls: active = hit-call score of the fitted dose curve at least 0.9, where 1 is the maximum; inactive = score below 0.9.
readout: outcome

For reference, reported outcome for NCCc1cc(O)c(O)cc1O stands at inactive

response.value for CP(=O)(O)CCC(N)C(=O)O (stereo not drawn) (field: outcome) = inactive

Value of measured outcome for the entry C[n+]1ccc(-c2ccccc2)cc1 : inactive

----------
- tgt: Cytochrome P450 2C19 (Homo sapiens)
- protocol: NVS_ADME_hCYP2C19: NovaScreen (NVS) CYP450-related Enzyme Activity (ADME) Assay for human CYP2C19 (AID 2283113);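 also: potency for inhibition seen as loss of fluorescent signal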
Results filed as inconclusive are left out. Active and inactive are the calls of the source. Rule for the calls: active = hit-call score of the fitted dose curve at least 0.9, where 1 is the maximum; inconclusive = response in the unintended direction; inactive = score below 0.9.
readout: AC50

AC50 in this record for COC(C)(C)CCC[C@H](C)C/C=C/C(C)=C/C(=O)OC(C)C : 0.992 µM (active)

Record CC(C)(c1cc(Cl)c(O)c(Cl)c1)c1cc(Cl)c(O)c(Cl)c1 . Reported AC50: 0.992 µM (active)

CC(Cc1ccc(C(C)(C)C)cc1)CN1C[C@@H](C)O[C@@H](C)C1 (some centres undefined) yielded AC50 of 6.83 µM (active)

The reported AC50 of the compound O=CNC(N1CCN(C(NC=O)C(Cl)(Cl)Cl)CC1)C(Cl)(Cl)Cl (centres undefined) was 5.96 µM (active)

----------
- Read-out: Tumor necrosis factor (Homo sapiens) (UniProt P01375)
- Sequence (P01375 whole entry, looked up): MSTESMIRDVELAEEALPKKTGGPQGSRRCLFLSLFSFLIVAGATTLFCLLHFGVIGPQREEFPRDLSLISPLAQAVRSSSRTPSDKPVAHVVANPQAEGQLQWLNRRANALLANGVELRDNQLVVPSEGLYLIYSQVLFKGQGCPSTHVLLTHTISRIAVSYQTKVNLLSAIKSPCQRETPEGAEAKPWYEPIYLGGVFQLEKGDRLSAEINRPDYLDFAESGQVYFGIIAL
- protocol: BSK_LPS_TNFa: BioMAP Diversity Plus: LPS Assay for Tumour Necrosis Factor alpha (TNFa) Biomarker Activity (AID 2283085)
- condition notes: primary human HUVEC with PBMC; actives raise or lower the signal
Active and inactive are the calls of the source. How the source made its calls: active means hit-call score of the fitted dose curve at least 0.9, where 1 is the maximum; inactive means score below 0.9.
API: response.call in yes (1) (active), no (0) (inactive)

Req: Field: outcome | Entry: O=c1c2ccccc2c(=O)c2c1cc(Cl)c1[nH]c3c([nH]c12)c(Cl)cc1c(=O)c2ccccc2c(=O)c13
Resp: no (0)

Req: For CNC(=O)Oc1cc(C)c(SC)c(C)c1 , what call appears in the results of this test?
Resp: no (0)

Req: What did this assay record as the result for O=C(CCl)c1ccccc1 ?
Resp: yes (1)

Req: Please let me know the test result on file for O=[N+]([O-])O .
Resp: no (0)

Req: Just curious, what result did CC(C)CCCCCCCOP(=O)(Oc1ccccc1)Oc1ccccc1 get here?
Resp: yes (1)

Req: Hi, do you know how Oc1cc(Cl)ccc1Cl came out in this test?
Resp: no (0)

Req: Hey, what did the test say about CC(C)(C)C(O)C(Oc1ccc(-c2ccccc2)cc1)n1cncn1 (stereo not given) ?
Resp: no (0)

Req: Hi team, can someone confirm the assay call for N#CCCCCC#N ?
Resp: no (0)

Req: GET /call?item= COc1ccc(CO)cc1 returns the recorded outcome of this test.
Resp: no (0)

Req: Please state the recorded outcome for this compound: CCCCCCCCCCCC#N
Resp: yes (1)

Req: Tell me the recorded outcome of this test for CC1(C)[C@H](C(=O)O[C@H](C#N)c2cccc(Oc3ccccc3)c2)[C@@H]1C=C(Br)Br .
Resp: no (0)

Req: Could you kindly confirm the outcome this assay logged for Cc1ccc(OP(=O)(Oc2ccc(C)cc2)Oc2ccc(C)cc2)cc1 (tested in a mixture with another compound) ?
Resp: no (0)

Req: Recorded test call requested for O=[N+]([O-])C=Cc1ccccc1
Resp: yes (1)

Req: What did the test return for C=CCN(CC=C)C(=O)C(Cl)Cl ?
Resp: no (0)

Req: I would be grateful if you could indicate the recorded call for O=S(=O)(c1ccccc1)c1ccccc1 .
Resp: no (0)

Req: Hey, what did the test say about COC(C)(C)CCC[C@H](C)C/C=C/C(C)=C/C(=O)OC(C)C ?
Resp: yes (1)

Req: For Nc1ccc(-c2ccc(N)c(N)c2)cc1N , which call appears in the assay record?
Resp: no (0)

Req: Dear colleague, could you share the recorded outcome for CCc1cc(C)cc(CC)c1-c1c(OC(=O)C(C)(C)C)n2n(c1=O)CCOCC2 when you have a moment?
Resp: no (0)

Req: Returns: the outcome recorded for c1ccc(Nc2ccc3ccccc3c2)cc1 in this assay.
Resp: no (0)

Req: What was the test verdict on COCC(=O)N(c1c(C)cccc1C)N1CCOC1=O ?
Resp: no (0)
